All values here come from PubChem BioAssay.

Assign differentiation response to each entry below.
experiment: AML differentiation inducers, ER-HoxA9 marrow cells – cell-based, GFP/MAC1 double positive, flow cytometry, validation set, primary screen (AID 588685); conditions: hits give high values, normalized: vehicle 0, fulvestrant 100;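 note: compound exposure lasts four days before antibody staining and flow analysis; 0% = DMSO wells and 100% = 5 µM fulvestrant positive control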
Numbers only, in %.

CC(C)CN1CCN(Cc2ccc(C#CC(C)(C)O)cc2)CC1CCO (stereo unspecified): -2.46

I have 5 compounds here; please give me differentiation response for each one.
1. Cc1ccc2c(c1)c1c3n2CCCN(Cc2ccccc2)C3CCC1 (stereo unspecified)
2. COc1ccc2c3c([nH]c2c1)C1(NCC3)C(=O)Nc2ccccc21 (stereo unspecified)
3. COc1ccc(C(=O)Nc2cccnc2)cc1C(=O)Nc1cccnc1
4. COc1ccc(C2c3c(n[nH]c3C)CC(C)(O)C2C(C)=O)cc1OC (stereo unspecified)
5. Fc1ccc(-c2cc(-c3ccccc3)nc(-n3cccn3)n2)cc1

1. 8.8
2. 10.4
3. 13
4. 13.1
5. 20.9

====

biological target: Beta-2 adrenergic receptor (Homo sapiens) (UniProt P07550); experiment: agonist-induced loss of surface beta2AR – cell-based, FAP fluorogen, flow cytometry, validation set, pilot screen (AID 504459); conditions: Am2.2-beta2AR cells, at 10 µM, hits give high values;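 note: agonist-driven loss of surface beta2AR via internalization measured by FAP dye flow cytometry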
Sequence (P07550 whole entry, looked up): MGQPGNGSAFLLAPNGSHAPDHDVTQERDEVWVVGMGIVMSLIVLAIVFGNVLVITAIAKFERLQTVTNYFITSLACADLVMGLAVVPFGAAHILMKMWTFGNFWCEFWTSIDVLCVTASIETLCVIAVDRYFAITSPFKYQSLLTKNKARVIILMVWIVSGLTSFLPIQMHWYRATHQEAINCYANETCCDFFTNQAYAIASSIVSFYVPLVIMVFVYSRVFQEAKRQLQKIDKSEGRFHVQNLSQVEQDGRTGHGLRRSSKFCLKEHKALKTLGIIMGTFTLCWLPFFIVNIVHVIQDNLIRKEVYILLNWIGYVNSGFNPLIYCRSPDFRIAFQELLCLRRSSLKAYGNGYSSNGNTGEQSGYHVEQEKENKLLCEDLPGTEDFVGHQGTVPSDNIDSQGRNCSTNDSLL
Hi there, I'd appreciate the recorded response for every entry that follows.
Answers are plain numbers, in %.

Here is how some molecules turned out for response.
Cc1ccccc1C(=O)Oc1ccc(Sc2ccc(O)cc2)cc1: -4.72
COc1ccc(C2c3c(n[nH]c3C)CC(C)(O)C2C(C)=O)cc1OC (configuration not stated): -2.94
COc1ccc(-c2noc(-c3ccccc3-c3ccccc3)n2)cc1: 3.77

Please state response for every molecule in the list that follows.
1. O=C(NC(=S)Nc1nc(-c2ccccc2)cs1)c1ccco1
2. COc1cccc2c(O)cc(=O)n(C)c12
3. Cc1ccc(O)c(CCc2ccccc2)n1
4. COc1cc(C(=O)OCCn2c(=O)c3c(ncn3CCN(C)C)n(C)c2=O)cc(OC)c1OC
5. CC1(C)CC(=O)c2c(nc3ccccc3c2N)C1
6. COc1cc(NC(=S)NC(=O)c2cccs2)ccc1NC(=O)C(C)C

1. -23.9
2. 5.82
3. -1.92
4. -24.2
5. -12.4
6. -2.44

====

test: TOR pathway LAP4-GFP level changes – S. cerevisiae, multiplex flow cytometry, primary screen (AID 1873); conditions: S. cerevisiae LAP4-GFP expression, 3 h, at 10 µM, hits give high values
Inconclusive results are not listed.
Kindly return T if reported GFP response vs DMSO is no lower than 80%; return F if it is lower.

Some solved entries appear below for comparison.
CCCCOc1ccc(CC(=O)NO)cc1: F
CCSC(SCC)[C@H](O)[C@@H](O)[C@H](O)[C@H](O)CO: F
COc1cccc2c(O)cc(=O)n(C)c12: T
COc1cc(C(=O)N/C(=C\c2cn(C)c3ccccc23)C(=O)NCCCO)cc(OC)c1OC: F
O=c1nc2sc3ccccc3n2c(=O)n1-c1ccc(Cl)cc1: T
COC(=O)c1ccc(NC(=O)c2ccccc2SC)cc1: T

Check if GFP response vs DMSO >= 80% (inclusive). Item: CC(C)(S)[C@@H](N)C(=O)O T

// inclusive: GFP response vs DMSO at least 80%? input: CCc1nc2ccccc2n1Cc1ccc(OC)c(OC)c1 T

Answer whether GFP response vs DMSO of CC(C)OC(=O)C1C2C=CC3(CN(CC4CCCO4)C(=O)C13)O2 (configuration not stated) is greater than or equal to 80%. T
